biological target: Aldehyde dehydrogenase, mitochondrial (Homo sapiens) (UniProt P05091); assay: qHTS for Inhibitors of the Aldehyde Dehydrogenase Family (ALDH2) Primary screen (AID 2061308); conditions: ALDH2 enzyme inhibition qHTS, 1536-well; series mostly up to 56 µM;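 note: plate controls were vehicle for no effect and reference inhibitor for full effect; nearly all actives have a fitted effect of over 55% in size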
Results filed as inconclusive are left out. Activity calls are given as the source filed them. Calls come from the whole dose curve; as a rule, active = well fitted inhibition curve with a large enough effect; inconclusive = small, poorly fitted or top-dose-only effect; inactive = flat fitted curve, though single readings scatter.
REPORTED METRIC: activity change, negative = inhibition

Solved cases below.
MOLECULE	activity change, negative = inhibition
COc1cc2c(cc1O)CC[C@H]1[C@@H]2CC[C@]2(C)[C@H](O)CC[C@@H]12	inactive
COC(=O)C1=CO[C@@H](O[C@@H]2O[C@H](CO)[C@@H](O)[C@H](O)[C@H]2O)/C(=C\CO)[C@@H]1CC(=O)OCCc1ccc(O)cc1	inactive
C[C@@H]1O[C@@H](O[C@H]2[C@H](O)[C@@H](O)[C@H](OC[C@H]3O[C@@H](OC(=O)[C@]45CCC(C)(C)C[C@H]4C4=CCC6[C@@]7(C)CC[C@H](O[C@@H]8OC[C@H](O)[C@H](O[C@@H]9O[C@H](CO)[C@@H](O)[C@H](O)[C@H]9O)[C@H]8O)[C@@](C)(CO)C7CC[C@@]6(C)[C@]4(C)CC5)[C@H](O)[C@@H](O)[C@@H]3O)O[C@@H]2CO)[C@H](O)[C@H](O)[C@H]1O (stereo partly specified)	1.57% [at 11.2 µM] (inactive)
O=C(OC1CN2CCC1CC2)N1CCc2ccccc2C1c1ccccc1 (stereo unspecified)	inactive
Cc1ccc(-c2c(-c3nn(C)c4ncnc(N5CCC(N6CCCCC6)C5)c34)cnn2C)cc1 (stereo unspecified)	inactive

// next entry
Prompt line: Lookup: activity change, negative = inhibition / Aldehyde dehydrogenase, mitochondrial (Homo sapiens) (UniProt P05091) / C/C=C(\C)C(=O)OCC1OC(OCC2OC(OC3(CO)OC(CO)C(O)C3O)C(O)C(O)C2O)C(O)C(O)C1O (stereo unspecified)
Response line: inactive

* * *

assay: BET inhibitor-based combinations targeting novel dependencies in MECOM-rearranged (r) AML: UCSD-AML1 cell line (AID 2202235); conditions: UCSD-AML1 AML cells viability, CellTiter-Glo, 48 h; series mostly up to 46 µM; note: nearly all actives have a fitted effect of over 40% in size; note: potency is the fitted concentration of half-maximal effect
Inconclusive results are not listed. Calls of active or inactive are those of the source. Calls come from the whole dose curve; as a rule, active = well fitted inhibition curve with a large enough effect; inconclusive = small, poorly fitted or top-dose-only effect; inactive = no such curve, though single readings can be large or run the other way.
REPORTED METRIC: Potency

> print(dat)
                                   compound            result
1  Cc1cc(Nc2cc(N3CCN(C)CC3)nc(Sc3ccc(NC(=O)C4CC4)cc3)n2)n[nH]1  4.68 µM (active)
2  CC(=O)c1c(C)c2cnc(Nc3ccc(N4CCNCC4)cn3)nc2n(C2CCCC2)c1=O  13.2 µM (active)
3   Cc1coc2c1C(=O)C(=O)c1c-2ccc2c1CCCC2(C)C          inactive
4  CN1C(=O)N[C@@H](Cc2c[nH]c3c(Cl)cccc23)C1=O          inactive
5  CN(C)c1ccc(C2Nc3ccc4ccccc4c3C3=C2C(=O)CC(C)(C)C3)cc1Br (centres undefined)          inactive

Prompt line: Which value of Potency has been reported for CC(C)(C)Cn1c(N)nc2ccc(-c3[nH]c(C(C)(C)C)nc3-c3ccc(F)cc3)nc21 in the records?
Response line: inactive

Prompt line: Form field: reported Potency of CC[C@H](C)C(=O)O[C@H]1C[C@@H](C)C=C2C=C[C@H](C)[C@H](CC[C@@H]3C[C@@H](O)CC(=O)O3)[C@H]21
Response line: 9.34 µM (active)

Prompt line: Param item = CCOC(=O)[C@H]1O[C@@H]1C(=O)N[C@@H](CC(C)C)C(=O)NCCC(C)C ; retrieve measured Potency.
Response line: inactive

Prompt line: Can you share its Potency? I mean this compound: O=C(NC(Cc1cc(=O)[nH]c2ccccc12)C(=O)O)c1ccc(Cl)cc1 (centres undefined)
Response line: inactive
